Reference source: patent US20060240570A1

Reported ELISA (absorbance units) (absorbance units) is given for each of the following binders.
Target: unrelated control antibody
Test: phage ELISA, 10^8 phagemid, wells coated with control mAb
Positions of bridges follow the written chain, without caps; N, C: chain ends. No end group written: not given here.
QUANTITY_KIND: ELISA (absorbance units) (absorbance units)

>>> reported_result("CSLFYLWDQDRCS (disulfide 1-12 (inferred); also: displayed on phagemid) [phagemid CS1-2p, displayed peptide …]")
0.188
>>> reported_result("CSFRYLWDQDRCS (disulfide 1-12 (inferred); also: displayed on phagemid) [phagemid CS1-6p, displayed peptide …]")
0.173
>>> reported_result("CSFRYQWDMFRCS (disulfide 1-12 (inferred); also: displayed on phagemid) [phagemid CS1-11p, displayed peptide …]")
0.252
>>> reported_result("CSGLYPWDMFRCS (disulfide 1-12 (inferred); also: displayed on phagemid) [phagemid CS1-9p, displayed peptide …]")
0.209
>>> reported_result("CSGLYPWDYFMCS (disulfide 1-12 (inferred); also: displayed on phagemid) [phagemid CS1-29p, displayed peptide …]")
0.125
>>> reported_result("CSFFYSLCYCWCS (disulfide (positions not given here); also: disulfide pairing among 4 Cys not given here, displayed on phagemid) [phagemid CS1-31p, displayed peptide …]")
0.116
